target: Protein deacetylase HDAC6 (Homo sapiens); assay: Inhibition of recombinant human HDAC6 expressed in SF9 baculoviral system using FAM-labeled acetylated peptide as substrate by EMSA
Sequence (Q9UBN7 whole entry): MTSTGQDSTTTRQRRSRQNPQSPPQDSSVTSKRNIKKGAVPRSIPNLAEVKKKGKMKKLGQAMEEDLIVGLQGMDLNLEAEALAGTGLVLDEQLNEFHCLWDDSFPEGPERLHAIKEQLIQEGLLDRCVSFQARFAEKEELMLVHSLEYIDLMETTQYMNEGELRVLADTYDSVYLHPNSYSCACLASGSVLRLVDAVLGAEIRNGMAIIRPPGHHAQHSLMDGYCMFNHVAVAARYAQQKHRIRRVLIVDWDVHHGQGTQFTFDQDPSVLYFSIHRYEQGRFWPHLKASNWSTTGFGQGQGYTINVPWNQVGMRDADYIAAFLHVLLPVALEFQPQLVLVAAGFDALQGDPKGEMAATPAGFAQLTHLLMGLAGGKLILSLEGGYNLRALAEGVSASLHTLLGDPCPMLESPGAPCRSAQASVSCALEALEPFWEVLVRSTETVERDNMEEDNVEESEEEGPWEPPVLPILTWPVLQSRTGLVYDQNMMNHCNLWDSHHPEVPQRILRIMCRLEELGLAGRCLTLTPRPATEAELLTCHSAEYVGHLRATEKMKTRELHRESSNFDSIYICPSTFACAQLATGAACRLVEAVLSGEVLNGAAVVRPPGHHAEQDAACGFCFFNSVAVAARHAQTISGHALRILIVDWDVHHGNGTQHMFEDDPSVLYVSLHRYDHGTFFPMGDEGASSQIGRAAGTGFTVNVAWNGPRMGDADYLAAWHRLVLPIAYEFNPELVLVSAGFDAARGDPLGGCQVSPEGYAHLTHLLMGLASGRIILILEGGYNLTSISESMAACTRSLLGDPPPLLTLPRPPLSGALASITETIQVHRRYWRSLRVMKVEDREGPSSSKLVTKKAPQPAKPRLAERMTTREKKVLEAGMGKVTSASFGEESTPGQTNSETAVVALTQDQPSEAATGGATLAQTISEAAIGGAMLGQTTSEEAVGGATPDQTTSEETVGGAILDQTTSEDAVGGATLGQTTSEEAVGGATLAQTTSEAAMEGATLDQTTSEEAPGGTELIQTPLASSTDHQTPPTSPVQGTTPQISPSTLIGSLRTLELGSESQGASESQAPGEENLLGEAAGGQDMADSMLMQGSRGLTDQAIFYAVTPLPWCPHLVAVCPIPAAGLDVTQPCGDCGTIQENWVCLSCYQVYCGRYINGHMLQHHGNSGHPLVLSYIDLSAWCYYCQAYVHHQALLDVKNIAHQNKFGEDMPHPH
pIC50: −log10 of the molar value.
Listed next: entries and their corresponding pIC50.
RECORDED ENDPOINT: pIC50

1. CC(C)(C)c1ccc(CN(C(=O)CN(Cc2ccccc2C(F)(F)F)S(=O)(=O)c2ccc(F)cc2)c2ccc(C(=O)NO)cc2)cc1; 6.64
2. O=C(NO)c1ccc(N(Cc2ccc(C(F)(F)F)cc2)C(=O)CN(Cc2ccccc2C(F)(F)F)S(=O)(=O)c2ccc(F)cc2F)cc1; 6.82
3. CC(C)(C)c1ccc(CN(C(=O)CN(Cc2ccccc2C(F)(F)F)S(=O)(=O)c2ccc(F)c(F)c2)c2ccc(C(=O)NO)cc2)cc1; 6.44
4. CC(C)(C)c1ccc(CN(C(=O)CN(Cc2c(F)c(F)c(F)c(F)c2F)S(=O)(=O)c2ccc(F)cc2)c2ccc(C(=O)NO)cc2)cc1; 6.72
5. CC(C)(C)c1ccc(CN(C(=O)CN(Cc2ccccc2C(F)(F)F)S(=O)(=O)c2ccc(F)cc2F)c2ccc(C(=O)NO)cc2)cc1; 6.54
6. O=C(NO)c1ccc(N(Cc2ccc(C(F)(F)F)cc2)C(=O)CN(Cc2ccccc2C(F)(F)F)S(=O)(=O)c2ccc(F)cc2)cc1; 7.03
7. O=C(NO)c1ccc(N(Cc2ccc(C(F)(F)F)cc2)C(=O)CN(Cc2c(F)c(F)c(F)c(F)c2F)S(=O)(=O)c2ccc(F)cc2)cc1; 7.07
8. O=C(NO)c1ccc(N(Cc2ccc(C(F)(F)F)cc2)C(=O)CN(Cc2ccccc2C(F)(F)F)S(=O)(=O)c2ccc(F)c(F)c2)cc1; 6.73
